TGT: T1, human programmed cell death protein 1 (hPD-1) C93S (aa 24-167) (Homo sapiens, UniProt Q15116, C93S)
T1 construct: made as a fusion with a TEV site and human Fc; the Fc was cut off with TEV protease; source: Expi293F, purified (Protein A, TEV cleavage of Fc, SEC; monomer fractions); not shown: Fc (human), C-terminal, cleaved
ASSAY REMARKS: SPR; Carterra LSA; Fab from the ammonium sulfate precipitate of the culture supernatant immobilised on a NiHC200M chip; hPD-1 (1-1024 nM) or mPD-1-Fc (4-1024 nM) as analyte, fourfold dilution series, no regeneration; HBS-EP pH 7.4, 25 °C; medians over the spots of a construct, KD = koff/kon
EXPERIMENTAL PARAMETERS: one partner purified
// reported Kd for each item listed

The examples below pair each entry with its known result.
BINDER	Kd
toripalimab Fab H.T58Y (Fab, V domains shown, heavy chain of Sm3 with this change; numbers count from the chain's first residue; as the light chain of Sm3; source: Brevibacillus, culture supernatant (ammonium sulfate precipitate); not shown: 6xHis, C-terminal, kept; 6xHN, C-terminal, kept) VH: QGQLVQSGAEVKKPGASVKVSCKASGYTFTDYEMHWVRQAPIHGLEWIGVIESETGGYAYNQKFKGRVTITADKSTSTAYMELSSLRSEDTAVYYCAREGITTVATTYYWYFDVWGQGTTVTVSS VL: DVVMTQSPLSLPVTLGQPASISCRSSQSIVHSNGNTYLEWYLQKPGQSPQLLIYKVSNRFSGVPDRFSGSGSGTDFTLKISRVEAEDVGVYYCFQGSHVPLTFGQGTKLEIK	1.26 nM
toripalimab Fab L.L101F (Fab, V domains shown, as the heavy chain of Sm3; light chain of Sm3 with this change; numbers count from the chain's first residue; source: Brevibacillus, culture supernatant (ammonium sulfate precipitate); not shown: 6xHis, C-terminal, kept; 6xHN, C-terminal, kept) VH: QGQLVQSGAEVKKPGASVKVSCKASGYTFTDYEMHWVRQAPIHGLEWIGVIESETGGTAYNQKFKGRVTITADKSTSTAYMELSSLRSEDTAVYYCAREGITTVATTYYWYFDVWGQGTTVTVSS VL: DVVMTQSPLSLPVTLGQPASISCRSSQSIVHSNGNTYLEWYLQKPGQSPQLLIYKVSNRFSGVPDRFSGSGSGTDFTLKISRVEAEDVGVYYCFQGSHVPFTFGQGTKLEIK	7.96 nM

Data point: toripalimab Fab L.L101M (Fab, V domains shown, as the heavy chain of Sm3; light chain of Sm3 with this change; numbers count from the chain's first residue; source: Brevibacillus, culture supernatant (ammonium sulfate precipitate); not shown: 6xHis, C-terminal, kept; 6xHN, C-terminal, kept) VH: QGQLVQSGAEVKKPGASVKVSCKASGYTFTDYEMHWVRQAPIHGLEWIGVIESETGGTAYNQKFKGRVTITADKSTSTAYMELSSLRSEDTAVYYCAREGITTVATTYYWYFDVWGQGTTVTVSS VL: DVVMTQSPLSLPVTLGQPASISCRSSQSIVHSNGNTYLEWYLQKPGQSPQLLIYKVSNRFSGVPDRFSGSGSGTDFTLKISRVEAEDVGVYYCFQGSHVPMTFGQGTKLEIK ; Kd = < 1.08 nM

Data point: toripalimab Fab L.G34A (Fab, V domains shown, as the heavy chain of Sm3; light chain of Sm3 with this change; numbers count from the chain's first residue; source: Brevibacillus, culture supernatant (ammonium sulfate precipitate); not shown: 6xHis, C-terminal, kept; 6xHN, C-terminal, kept) VH: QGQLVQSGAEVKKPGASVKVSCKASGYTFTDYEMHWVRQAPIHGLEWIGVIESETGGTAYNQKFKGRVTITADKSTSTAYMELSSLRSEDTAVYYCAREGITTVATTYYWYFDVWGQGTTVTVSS VL: DVVMTQSPLSLPVTLGQPASISCRSSQSIVHSNANTYLEWYLQKPGQSPQLLIYKVSNRFSGVPDRFSGSGSGTDFTLKISRVEAEDVGVYYCFQGSHVPLTFGQGTKLEIK ; Kd = 2.35 nM

Sample toripalimab Fab H.Q62A (Fab, V domains shown, heavy chain of Sm3 with this change; numbers count from the chain's first residue; as the light chain of Sm3; source: Brevibacillus, culture supernatant (ammonium sulfate precipitate); not shown: 6xHis, C-terminal, kept; 6xHN, C-terminal, kept) VH: QGQLVQSGAEVKKPGASVKVSCKASGYTFTDYEMHWVRQAPIHGLEWIGVIESETGGTAYNAKFKGRVTITADKSTSTAYMELSSLRSEDTAVYYCAREGITTVATTYYWYFDVWGQGTTVTVSS VL: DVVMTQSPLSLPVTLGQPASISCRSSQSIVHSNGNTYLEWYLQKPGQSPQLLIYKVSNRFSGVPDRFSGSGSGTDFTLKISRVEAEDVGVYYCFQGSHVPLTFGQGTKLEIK ; Kd observed: < 1.29 nM

GET /value?item= toripalimab Fab L.F94Y (Fab, V domains shown, as the heavy chain of Sm3; light chain of Sm3 with this change; numbers count from the chain's first residue; source: Brevibacillus, culture supernatant (ammonium sulfate precipitate); not shown: 6xHis, C-terminal, kept; 6xHN, C-terminal, kept) VH: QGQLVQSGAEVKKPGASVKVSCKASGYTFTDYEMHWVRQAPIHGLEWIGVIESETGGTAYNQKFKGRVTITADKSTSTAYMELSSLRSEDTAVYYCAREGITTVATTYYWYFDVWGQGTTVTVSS VL: DVVMTQSPLSLPVTLGQPASISCRSSQSIVHSNGNTYLEWYLQKPGQSPQLLIYKVSNRFSGVPDRFSGSGSGTDFTLKISRVEAEDVGVYYCYQGSHVPLTFGQGTKLEIK &field=Kd returns < 0.968 nM

Record summary for toripalimab Fab L.F94A (Fab, V domains shown, as the heavy chain of Sm3; light chain of Sm3 with this change; numbers count from the chain's first residue; source: Brevibacillus, culture supernatant (ammonium sulfate precipitate); not shown: 6xHis, C-terminal, kept; 6xHN, C-terminal, kept) VH: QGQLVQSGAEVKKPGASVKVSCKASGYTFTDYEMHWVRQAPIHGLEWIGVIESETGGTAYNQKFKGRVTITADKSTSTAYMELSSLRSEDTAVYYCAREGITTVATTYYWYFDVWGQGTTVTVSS VL: DVVMTQSPLSLPVTLGQPASISCRSSQSIVHSNGNTYLEWYLQKPGQSPQLLIYKVSNRFSGVPDRFSGSGSGTDFTLKISRVEAEDVGVYYCAQGSHVPLTFGQGTKLEIK : reported Kd = < 2.46 nM

Record toripalimab Fab L.P100R (Fab, V domains shown, as the heavy chain of Sm3; light chain of Sm3 with this change; numbers count from the chain's first residue; source: Brevibacillus, culture supernatant (ammonium sulfate precipitate); not shown: 6xHis, C-terminal, kept; 6xHN, C-terminal, kept) VH: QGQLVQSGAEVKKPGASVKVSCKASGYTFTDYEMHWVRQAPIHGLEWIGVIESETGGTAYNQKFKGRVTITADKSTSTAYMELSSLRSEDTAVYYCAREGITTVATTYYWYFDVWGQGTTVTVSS VL: DVVMTQSPLSLPVTLGQPASISCRSSQSIVHSNGNTYLEWYLQKPGQSPQLLIYKVSNRFSGVPDRFSGSGSGTDFTLKISRVEAEDVGVYYCFQGSHVRLTFGQGTKLEIK . Reported Kd: 2.13 nM

Entry toripalimab Fab H.W110A (Fab, V domains shown, heavy chain of Sm3 with this change; numbers count from the chain's first residue; as the light chain of Sm3; source: Brevibacillus, culture supernatant (ammonium sulfate precipitate); not shown: 6xHis, C-terminal, kept; 6xHN, C-terminal, kept) VH: QGQLVQSGAEVKKPGASVKVSCKASGYTFTDYEMHWVRQAPIHGLEWIGVIESETGGTAYNQKFKGRVTITADKSTSTAYMELSSLRSEDTAVYYCAREGITTVATTYYAYFDVWGQGTTVTVSS VL: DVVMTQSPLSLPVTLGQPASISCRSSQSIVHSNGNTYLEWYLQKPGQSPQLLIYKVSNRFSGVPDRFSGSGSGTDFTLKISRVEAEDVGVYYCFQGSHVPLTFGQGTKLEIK — recorded Kd = < 2.43 nM

Recorded result, toripalimab Fab H.E54Y (Fab, V domains shown, heavy chain of Sm3 with this change; numbers count from the chain's first residue; as the light chain of Sm3; source: Brevibacillus, culture supernatant (ammonium sulfate precipitate); not shown: 6xHis, C-terminal, kept; 6xHN, C-terminal, kept) VH: QGQLVQSGAEVKKPGASVKVSCKASGYTFTDYEMHWVRQAPIHGLEWIGVIESYTGGTAYNQKFKGRVTITADKSTSTAYMELSSLRSEDTAVYYCAREGITTVATTYYWYFDVWGQGTTVTVSS VL: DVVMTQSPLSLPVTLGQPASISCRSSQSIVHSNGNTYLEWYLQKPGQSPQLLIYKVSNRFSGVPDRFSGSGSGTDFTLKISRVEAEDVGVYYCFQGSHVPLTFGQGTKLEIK , Kd: < 0.326 nM
